Kindly supply the reported polymerase ribozyme fitness (log ratio) values for the records listed here.
B1: TPR 5TU (parent)
chain: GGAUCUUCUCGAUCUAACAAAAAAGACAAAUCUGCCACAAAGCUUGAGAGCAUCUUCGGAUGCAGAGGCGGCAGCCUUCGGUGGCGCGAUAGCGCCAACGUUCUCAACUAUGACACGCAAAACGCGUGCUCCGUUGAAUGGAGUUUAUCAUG

# Variants of: B1
# protocol-details: polymerase ribozyme fitness, log enrichment relative to wild type (log ratio); higher = more active; in vitro selection for triplet polymerase activity
Fewer inactive variants are shown than the library holds.
Numbers only.

Value lookup for polymerase ribozyme fitness (log ratio); key = A40G G58C G94A G141A
-3.65

Value lookup for polymerase ribozyme fitness (log ratio); key = U55C U127A U139G
-3.31

Value lookup for polymerase ribozyme fitness (log ratio); key = A12U U15G U56A G71C G84A G117U A120U A147U
-3.53

Value lookup for polymerase ribozyme fitness (log ratio); key = C125A
-0.171

Value lookup for polymerase ribozyme fitness (log ratio); key = C125U U134A
-1.89

Give polymerase ribozyme fitness (log ratio) for all variants that follow.
1. A47C A52U U82A A120U
2. A40U G140U
3. C8U C99A

1: -1.94; 2: -3.81; 3: -3.69
